assay_system: aldose reductase (Bos taurus)
Construct: preparation of the enzyme from bovine lens; from tissue; host or cells: bovine lens
measurement_notes: aldose reductase inhibiting effects in vitro (Table I, IN VITRO)
Format: biochemical, bovine (lens)
reported_conditions: 4 × 10^-8 M; read-out: % Inhibition IN VITRO
measured_attribute: inhibition at 0.04 µM (%)

* COc1ccc2c(C(=S)N(C)CC(=O)O)c(OCc3ccccc3)ccc2c1C(F)(F)F | 45
* COc1ccc2c(C(=O)N(C)CC(=O)O)c(Oc3ccccc3)ccc2c1C(F)(F)F | 50
* CCOc1ccc2c(C(F)(F)F)c(OC)ccc2c1C(=O)N(C)CC(=O)O | 33
* CCCOc1ccc2c(C(F)(F)F)c(OC)ccc2c1C(=O)N(C)CC(=O)O | 21

----------
Each item that follows carries a reported inhibition at 0.1 µM.
assay_system: aldose reductase (Bos taurus)
Construct: preparation of the enzyme from bovine lens; from tissue; host or cells: bovine lens
measurement_notes: aldose reductase inhibiting effects in vitro (Table I, IN VITRO)
Type: biochemical, bovine (lens)
reported_conditions: 10^-7 M; read-out: % Inhibition IN VITRO
measured_attribute: inhibition at 0.1 µM

- COc1ccc2c(C(=O)N(C)CC(=O)O)c(F)ccc2c1C(F)(F)F [F O OH]: 80%
- COc1ccc2c(C(=O)N(C)CC(=O)O)c(OCC(F)(F)F)ccc2c1C(F)(F)F [Example 3]: 67%
- CCCCOc1ccc2c(C(F)(F)F)c(OC)ccc2c1C(=O)N(C)CC(=O)O [Example 12]: 42%
- COc1ccc2c(C(=O)N(C)CC(=O)O)c(Br)ccc2c1C(F)(F)F [Example 9]: 63%
- COc1ccc2c(C(=O)N(C)CC(=O)O)c(Oc3ccccc3)ccc2c1C(F)(F)F [Example 8]: 83%
- COc1ccc2c(C(=S)N(C)CC(=O)O)c(Cl)ccc2c1C(F)(F)F [Example 10]: 81%

----------
inhibition at 10 µM values, listed per item
assay_system: aldose reductase (Bos taurus, UniProt P16116)
Construct: preparation of the enzyme from bovine lens; from tissue; host or cells: bovine lens
measurement_notes: aldose reductase inhibiting effects in vitro (Table I, IN VITRO)
Assay type: biochemical, bovine (lens)
reported_conditions: 10^-5 M; read-out: % Inhibition IN VITRO
measured_attribute: inhibition at 10 µM (%)

* COc1ccc2c(C(=O)N(C)CC(N)=O)c(Cl)ccc2c1C(F)(F)F | 9
* COc1ccc2c(C(=S)N(C)CC(=O)O)c(Cl)ccc2c1C(F)(F)F | 95
* COc1ccc2c(C(=O)N(C)CC(N)=O)c(F)ccc2c1C(F)(F)F | 1
* COc1ccc2c(C(=O)N(C)CC(=O)O)c(Cl)ccc2c1C(F)(F)F | 90

----------
assay_system: aldose reductase (Bos taurus)
Construct: preparation of the enzyme from bovine lens; from tissue; host or cells: bovine lens
measurement_notes: aldose reductase inhibiting effects in vitro (Table I, IN VITRO)
Type: biochemical, bovine (lens)
reported_conditions: 10^-6 M; read-out: % Inhibition IN VITRO
The entries below are paired with their reported inhibition at 1 µM.
measured_attribute: inhibition at 1 µM

* COc1ccc2c(C(=O)N(C)CC(N)=O)c(Cl)ccc2c1C(F)(F)F | 0%
* COc1ccc2c(C(=S)N(C)CC(N)=O)c(F)ccc2c1C(F)(F)F | 6%
* COc1ccc2c(C(=S)N(C)CC(=O)O)c(OCC(F)(F)F)ccc2c1C(F)(F)F | 95%
